meta.source: patent US8383637B2

Consider the following compounds; for each one, report its % Inhibition (FS) 0.3 μM.
- test target: β-secretase(BACE) (Homo sapiens, UniProt P56817)
- Construct: purchased Panvera
- Sequence (P56817 46-501): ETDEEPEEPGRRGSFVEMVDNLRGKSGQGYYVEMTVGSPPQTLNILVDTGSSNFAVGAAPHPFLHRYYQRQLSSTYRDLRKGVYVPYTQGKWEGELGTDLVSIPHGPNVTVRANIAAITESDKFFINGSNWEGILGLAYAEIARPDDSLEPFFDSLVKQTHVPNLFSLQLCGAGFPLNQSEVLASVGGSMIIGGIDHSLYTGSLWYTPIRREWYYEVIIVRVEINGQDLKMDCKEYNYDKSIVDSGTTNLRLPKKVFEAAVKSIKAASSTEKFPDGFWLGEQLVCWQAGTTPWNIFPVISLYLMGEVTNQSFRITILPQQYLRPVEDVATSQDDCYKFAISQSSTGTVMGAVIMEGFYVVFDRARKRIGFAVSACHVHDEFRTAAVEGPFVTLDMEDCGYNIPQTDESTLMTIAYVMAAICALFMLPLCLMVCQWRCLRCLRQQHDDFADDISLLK
- protocol summary: BACE FS1% Inhibition Assay
- Assay type: biochemical
- condition notes: 0.3 μM test compound; FS1 substrate

Answered examples (10):
CC(C)c1ccccc1Oc1ccc2c(c1)CN(C(CC(=O)NC1CCCCC1)C1CCCCC1)C(N)=N2 (stereo not shown) :: <30%
CN(C(=O)c1ncoc1CN1Cc2cc(Oc3ccccc3)ccc2N=C1N)C1CCCCC1 :: <30%
NC1=Nc2ccc(-c3ccccc3Cl)cc2CN1CCNC(=O)C1CCCC1 :: 72%
CC(C)(C)OC(=O)NCc1cccc(CN2Cc3cc(Oc4ccccc4)ccc3N=C2N)c1 :: <30%
NC1=Nc2ccc(-c3ccccc3Cl)cc2CN1CCNC(=O)C12CC3CC(CC(C3)C1)C2 :: <30%
CCC(c1cccc(C(=O)N(C)C2CCCCC2)c1)N1Cc2cc(-c3ccccc3OC)ccc2N=C1N (racemic) :: 69%
COc1ccc(F)cc1-c1ccc2c(c1)CN(CCNC(=O)C1CCCCC1)C(N)=N2 :: <30%
CN(C(=O)c1cccc(CN2Cc3cc(OCc4ccccc4-c4ccccc4)ccc3N=C2N)c1)C1CCCCC1 :: <30%
NC1=Nc2ccc(Oc3ccccc3)cc2CN1Cc1cccc(NC(=O)C2CCCCC2)c1 :: <30%
CC(c1ccccc1)c1ccc2c(c1)CN(Cc1cccc(C(=O)N(C)C3CCCCC3)c1)C(N)=N2 (stereo not shown) :: <30%

Return reported % Inhibition (FS) 0.3 μM values for all items listed beneath this line.
1. CCCC(=O)NCCN1Cc2cc(-c3ccccc3Cl)ccc2N=C1N
2. CCCCCCCCC(CCC(=O)NC1CCCCCC1)N1Cc2cc(Oc3ccccc3)ccc2N=C1N (stereo not shown)

A:
1. 31%
2. <30%

Return reported % Inhibition (FS) 0.3 μM values for all items listed beneath this line.
1. Cc1cc(C)cc(Oc2ccc3c(c2)CN(Cc2cccc(C(=O)N(C)C4CCCCC4)c2)C(N)=N3)c1
2. CCCC=Cc1ccc2c(c1)CN(CCNC(=O)C1CCCCC1)C(N)=N2

A:
1. <30%
2. <30%

Return reported % Inhibition (FS) 0.3 μM values for all items listed beneath this line.
1. NC1=Nc2ccc(-c3ccc(F)cc3)cc2CN1CCNC(=O)C1CCCCC1 [Compound 624]
2. COc1ccccc1-c1ccc2c(c1)CN(CCNC(=O)CCCN)C(N)=N2

A:
1: <30%; 2: <30%

====

- test target: β-secretase(BACE) (Homo sapiens, UniProt P56817)
- Construct: purchased Panvera
- protocol summary: BACE FS1% Inhibition Assay
- Assay type: biochemical
- condition notes: 3 μM test compound; FS1 substrate
readout label: % Inhibition (FS)

Cc1ccccc1-c1ccc2c(c1)CN(CCNC(=O)CCC(C)C)C(N)=N2 :: 106%
NC1=Nc2ccc(-c3ccccc3F)cc2CN1CCNC(=O)C1CCOCC1 :: 87%
CCCCC(CC)C(=O)NCCN1Cc2cc(-c3ccc4ccccc4c3)ccc2N=C1N (centres unmarked) :: 32%
CNC(=O)C1CCC(N(C)C(=O)CCC(C2CCCCC2)N2Cc3cc(Oc4ccccc4)ccc3N=C2N)CC1 (centres unmarked) :: 97%
CCCC(=O)NCCN1Cc2cc(-c3cnc4ccccc4c3)ccc2N=C1N :: <30%
Cc1ccccc1-c1ccc2c(c1)CN(CCNC(=O)CC(C)C(F)(F)F)C(N)=N2 (centres unmarked) :: 103%
NC1=Nc2ccc(-c3ccc4ccccc4c3)cc2CN1CCNC(=O)C1CCCC1 :: <30%

Q: Quick one: give measured % Inhibition (FS) for CCCCC(CC)C(=O)NCCN1Cc2cc(-c3cnc4ccccc4c3)ccc2N=C1N (centres unmarked)
A: 44%

====

Consider the following compounds; for each one, report its inhibition at 0.3 µM.
- test target: β-secretase(BACE) (Homo sapiens, UniProt P56817)
- Construct: purchased Panvera
- protocol summary: BACE FS1% Inhibition Assay
- Type: biochemical
- condition notes: 0.3 μM test compound; FS1 substrate; read-out: % Inhibition (FS)
Answers are plain numbers, in %.

Answered examples (5):
NC1=Nc2ccc(Oc3ccccc3)cc2CN1[C@@H](CCC(=O)N(CC(=O)O)C1CCCCC1)C1CCCCC1 :: 122
NC1=Nc2ccc(Oc3ccccc3)cc2CN1[C@@H](CCC(=O)N(CCO)[C@H]1CC[C@@H](C(=O)O)CC1)C1CCOCC1 :: 115
COC(=O)[C@H]1CC[C@@H](N(CCO)C(=O)CC[C@@H](C2CCCCC2)N2Cc3cc(Oc4ccccc4)ccc3N=C2N)CC1 :: 74
CN(C(=O)CC[C@@H](C1CCC2(CC1)OCCO2)N1Cc2cc(Oc3ccccc3)ccc2N=C1N)C1CCCCC1 :: 93
COc1ccccc1-c1ccc2c(c1)CN([C@@H](CCC(=O)N(C)CCc1ccccc1)C1CCCCC1)C(N)=N2 :: 60

Return reported inhibition at 0.3 µM values for all items listed beneath this line.
1. COc1ccccc1-c1ccc2c(c1)CN([C@@H](CCC(=O)N(C)CCC#N)C1CCCCC1)C(N)=N2
2. COC(=O)[C@H]1CC[C@@H](N(C)C(=O)CC[C@@H](C2CCCCC2)N2Cc3cc(Oc4ccccc4)ccc3N=C2N)CC1
3. CN(C(=O)CC[C@@H](C1CCOCC1)N1Cc2cc(Oc3ccccc3)ccc2N=C1N)[C@H]1CC[C@H](C(=O)O)CC1
4. NC1=Nc2ccc(Oc3ccccc3)cc2CN1[C@@H](CCC(=O)N[C@H](CO)C(=O)O)C1CCOCC1
5. NC1=Nc2ccc(Oc3ccccc3)cc2CN1[C@@H](CCC(=O)N(CCO)C1CCCCC1)C1CCCCC1
6. NC1=Nc2ccc(Oc3ccccc3)cc2CN1[C@@H](CCC(=O)N(CCOCc1ccccc1)[C@H]1CC[C@@H](C(=O)O)CC1)C1CCOCC1
7. Cc1ccccc1-c1ccc2c(c1)CN(CCNC(=O)C1CCOCC1)C(N)=N2

A:
1. 72
2. 51
3. 85
4. 102
5. 125
6. 112
7. 47

====

- test target: β-secretase(BACE) (Homo sapiens, UniProt P56817)
- Construct: purchased Panvera
- protocol summary: BACE FS1% Inhibition Assay
- Type: biochemical
- condition notes: 1 μM test compound; FS1 substrate
readout label: % Inhibition (FS) (%)
Answers are plain numbers, in %.

Answered examples (4):
COC(=O)Cc1cccc(CN(C)C(=O)CCC(C2CCCCC2)N2Cc3cc(Oc4ccccc4)ccc3N=C2N)c1 (stereo not shown) :: 62
CN(C(=O)CC[C@@H](C1CCCCC1)N1Cc2cc(Oc3ccccc3)ccc2N=C1N)C1CCC2(CC1)OCCO2 :: 68
CN(Cc1cccc(CC(=O)O)c1)C(=O)CCC(C1CCCCC1)N1Cc2cc(Oc3ccccc3)ccc2N=C1N (stereo not shown) :: 77
COC1CCCC(C(=O)NCCN2Cc3cc(-c4ccccc4)ccc3N=C2N)C1 (stereo not shown) :: 46

Q: Quick one: give measured % Inhibition (FS) for `COc1ccccc1-c1ccc2c(c1)CN([C@@H](CCC(=O)N(C)Cc1cc(C)no1)C1CCCCC1)C(N)=N2`
A: 30

====

Consider the following compounds; for each one, report its inhibition at 3 µM.
- test target: β-secretase(BACE) (Homo sapiens, UniProt P56817)
- Construct: purchased Panvera
- protocol summary: BACE FS1% Inhibition Assay
- Format: biochemical
- condition notes: 3 μM test compound; FS1 substrate; read-out: % Inhibition (FS)
Answers are plain numbers, in %.

Answered examples (3):
COC(=O)[C@@H](COCc1ccccc1)N(C)C(=O)CC[C@@H](C1CCOCC1)N1Cc2cc(Oc3ccccc3)ccc2N=C1N :: 121
COC1CCCC(C(=O)NCCN2Cc3cc(-c4ccccc4Cl)ccc3N=C2N)C1 (stereo not shown) :: 116
NC1=Nc2ccc(Oc3ccccc3)cc2CN1[C@@H](CCC(=O)N(Cc1ncc[nH]1)C1CCCCC1)C1CCCCC1 :: 118

Return reported inhibition at 3 µM values for all items listed beneath this line.
1. NC1=Nc2ccc(Oc3ccccc3)cc2CN1[C@@H](CCC(=O)N(CCO)[C@H]1CC[C@@H](C(=O)O)CC1)C1CCOCC1
2. CC(C)(C)OC[C@@H](NC(=O)CC[C@@H](C1CCOCC1)N1Cc2cc(Oc3ccccc3)ccc2N=C1N)C(=O)O
3. CN(C(=O)CC[C@@H]([C@H]1CC[C@@H](O)CC1)N1Cc2cc(Oc3ccccc3)ccc2N=C1N)C1CCCCC1

A:
1. 116
2. 124
3. 132

====

Consider the following compounds; for each one, report its % Inhibition (FS) 0.3 μM.
- test target: β-secretase(BACE) (Homo sapiens)
- Construct: purchased Panvera
- protocol summary: BACE FS1% Inhibition Assay
- Type: biochemical
- condition notes: 0.3 μM test compound; FS1 substrate

Answered examples (5):
CN(C(=O)c1cccc(CN2Cc3cc(-c4ccccc4S(=O)(=O)NC(C)(C)C)ccc3N=C2N)c1)C1CCCCC1 :: <30%
CC(C)c1ccccc1Oc1ccc2c(c1)CN(CCC(=O)NC1C3CC4CC(C3)CC1C4)C(N)=N2 (stereo not shown) :: <30%
NC1=Nc2ccc(Oc3ccccc3)cc2CN1Cc1cccc(C(=O)N2CCCCC2)c1 :: <30%
CN(C(=O)c1cccc(CN2Cc3cc(-c4ccc(C5CCCCC5)cc4)ccc3N=C2N)c1)C1CCCCC1 :: <30%
CN(C(=O)c1cccc(CN2Cc3cc(Oc4ccccc4C(=O)N4CCCC4)ccc3N=C2N)c1)C1CCCCC1 :: <30%

Return reported % Inhibition (FS) 0.3 μM values for all items listed beneath this line.
1. CN(C(=O)c1cccc(CN2Cc3cc(Nc4ccc5c(c4)OCO5)ccc3N=C2N)c1)C1CCCCC1
2. CN(C(=O)c1cccc(CN2Cc3cc(Oc4ccccc4C4CCCC4)ccc3N=C2N)c1)C1CCCCC1

A:
<30%
<30%
